Measured ED50, listed per entry.
System: Mus musculus
Experiment: In vivo activity in Disseminated Murine Candidiasis Model
Type: functional

{"columns": ["givenSmiles", "readoutRelation", "ED50, mg/kg"],
 "data": [
  ["CCCCCCCCCCCCC[C@@H]1CC(=O)N[C@H]([C@@H](C)O)C(=O)N[C@H](C)C(=O)N[C@@H](Cc2ccc(O)cc2)C(=O)N[C@@H](C(C)C)C(=O)N2C[C@H](O)C[C@H]2C(=O)N[C@H]([C@@H](C)O)C(=O)N[C@@H]([C@@H](C)O)C(=O)N2CC[C@H](O)[C@H]2C(=O)N[C@@H]([C@H](O)CC(N)=O)C(=O)NCC(=O)N[C@H]([C@@H](C)O)C(=O)N[C@@H](CCCNC(=O)[C@@H](N)CCCN)C(=O)O1.Cl", "=", 0.54],
  ["OC(Cn1cncn1)(Cn1cncn1)c1ccc(F)cc1F", ">", 20],
  ["C[C@@H]1[C@H](O)[C@@H](C)/C=C/C=C/C=C/C=C/C=C/C=C/C=C/[C@H](O[C@@H]2O[C@H](C)[C@@H](O)[C@H](N)[C@@H]2O)C[C@@H]2O[C@](O)(C[C@@H](O)C[C@@H](O)[C@H](O)CC[C@@H](O)C[C@@H](O)CC(=O)O[C@H]1C)C[C@H](O)[C@H]2C(=O)O", "=", 0.132],
  ["CCCCCCCCCCCCC[C@@H]1CC(=O)N[C@H]([C@@H](C)O)C(=O)N[C@H](C)C(=O)N[C@@H](Cc2ccc(O)cc2)C(=O)N[C@@H](C(C)C)C(=O)N2C[C@H](O)C[C@H]2C(=O)N[C@H]([C@@H](C)O)C(=O)N[C@@H]([C@@H](C)O)C(=O)N2CC[C@H](O)[C@H]2C(=O)N[C@@H]([C@H](O)CC(N)=O)C(=O)NCC(=O)N[C@H]([C@@H](C)O)C(=O)N[C@@H](CCCNC(=O)CN(C)C)C(=O)O1.Cl", "=", 9.1],
  ["CCCCCCCCCCCCC[C@@H]1CC(=O)N[C@H]([C@@H](C)O)C(=O)N[C@H](C)C(=O)N[C@@H](Cc2ccc(O)cc2)C(=O)N[C@@H](C(C)C)C(=O)N2C[C@H](O)C[C@H]2C(=O)N[C@H]([C@@H](C)O)C(=O)N[C@@H]([C@@H](C)O)C(=O)N2CC[C@H](O)[C@H]2C(=O)N[C@@H]([C@H](O)CC(N)=O)C(=O)NCC(=O)N[C@H]([C@@H](C)O)C(=O)N[C@@H](CCCNC(C)=O)C(=O)O1", "=", 4]
]}

====

System: Candida albicans
Assay: Minimum inhibitory concentration against Candida albicans FP633 strain
Assay type: functional
Reported MIC values follow for various compounds
measurementName: MIC

{"columns": ["givenSmiles", "valueMeasured"],
 "data": [
  ["CCCCCCCCCCCCC[C@@H]1CC(=O)N[C@H]([C@@H](C)O)C(=O)N[C@H](C)C(=O)N[C@@H](Cc2ccc(O)cc2)C(=O)N[C@@H](C(C)C)C(=O)N2C[C@H](O)C[C@H]2C(=O)N[C@H]([C@@H](C)O)C(=O)N[C@@H]([C@@H](C)O)C(=O)N2CC[C@H](O)[C@H]2C(=O)N[C@@H]([C@H](O)CC(N)=O)C(=O)NCC(=O)N[C@H]([C@@H](C)O)C(=O)N[C@@H](CCCNC(=O)CN(C)C)C(=O)O1.Cl", "0.39 µg/mL"],
  ["CCCCCCCCCCCCC[C@@H]1CC(=O)N[C@H]([C@@H](C)O)C(=O)N[C@H](C)C(=O)N[C@@H](Cc2ccc(O)cc2)C(=O)N[C@@H](C(C)C)C(=O)N2C[C@H](O)C[C@H]2C(=O)N[C@H]([C@@H](C)O)C(=O)N[C@@H]([C@@H](C)O)C(=O)N2CC[C@H](O)[C@H]2C(=O)N[C@@H]([C@H](O)CC(N)=O)C(=O)NCC(=O)N[C@H]([C@@H](C)O)C(=O)N[C@@H](CCCNC(=O)CNC)C(=O)O1.Cl", "0.2 µg/mL"],
  ["CCCCCCCCCCCCC[C@@H]1CC(=O)N[C@H]([C@@H](C)O)C(=O)N[C@H](C)C(=O)N[C@@H](Cc2ccc(O)cc2)C(=O)N[C@@H](C(C)C)C(=O)N2C[C@H](O)C[C@H]2C(=O)N[C@H]([C@@H](C)O)C(=O)N[C@@H]([C@@H](C)O)C(=O)N2CC[C@H](O)[C@H]2C(=O)N[C@@H]([C@H](O)CC(N)=O)C(=O)NCC(=O)N[C@H]([C@@H](C)O)C(=O)N[C@@H](CCCNC(=O)CCCCCN)C(=O)O1.Cl", "0.39 µg/mL"],
  ["CCCCCCCCCCCCC[C@@H]1CC(=O)N[C@H]([C@@H](C)O)C(=O)N[C@H](C)C(=O)N[C@@H](Cc2ccc(O)cc2)C(=O)N[C@@H](C(C)C)C(=O)N2C[C@H](O)C[C@H]2C(=O)N[C@H]([C@@H](C)O)C(=O)N[C@@H]([C@@H](C)O)C(=O)N2CC[C@H](O)[C@H]2C(=O)N[C@@H]([C@H](O)CC(N)=O)C(=O)NCC(=O)N[C@H]([C@@H](C)O)C(=O)N[C@@H](CCCNC(C)=O)C(=O)O1", "0.39 µg/mL"]
]}
